# tested_target: HIV-1 HXB2 envelope glycoprotein (gp41 subunit, N-helix coiled-coil) (HIV-1 (HXB2), UniProt P04578 512-856)
# Sequence (P04578 512-856): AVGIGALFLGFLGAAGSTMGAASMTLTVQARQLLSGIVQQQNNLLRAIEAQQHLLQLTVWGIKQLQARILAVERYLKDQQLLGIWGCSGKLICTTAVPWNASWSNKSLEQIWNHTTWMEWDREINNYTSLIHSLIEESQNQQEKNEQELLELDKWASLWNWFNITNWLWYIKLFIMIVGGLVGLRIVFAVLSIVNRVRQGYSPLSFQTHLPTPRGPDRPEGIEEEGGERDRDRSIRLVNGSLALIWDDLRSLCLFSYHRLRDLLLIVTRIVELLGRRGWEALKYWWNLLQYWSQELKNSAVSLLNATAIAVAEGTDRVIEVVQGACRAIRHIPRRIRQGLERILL
# measurement_description: cell-based or functional assay
I'd be grateful if you could share measured IC50 (nanomolar) cell fusion for these entries.
One number for each entry, in nM.

Go through the items and report each one's IC50 (nanomolar) cell fusion.
1. Ac-WMELDREINNYTSLIHSLIEESQNQQEKNEQELL-NH2 [C34 Trp^631→Leu]
2. Ac-WMEGDREINNYTSLIHSLIEESQNQQEKNEQELL-NH2 [C34 Trp^631→Gly]
3. Ac-WMEFDREINNYTSLIHSLIEESQNQQEKNEQELL-NH2 [C34 Trp^631→Phe]

// result
1: 3.2; 2: 25; 3: 1.6

// query Tell me the measured IC50 (nanomolar) cell fusion of Ac-WMEVDREINNYTSLIHSLIEESQNQQEKNEQELL-NH2 [C34 Trp^631→Val] , please.
// result 4.5
